# procedure.summary: HBEC Cell Viability Secondary Assay for qHTS Assay for Epigenetic Modulators
# measurement.context: HBEC normal bronchial cells viability, ATP luminescence, 72 h; series mostly up to 46.1 µM
Results filed as inconclusive are left out. The source made the active and inactive calls. The call rests on the fitted dose curve; in most records, active means well fitted cell-killing curve with a large enough effect; inconclusive means small, poorly fitted or top-dose-only effect; inactive means flat fitted curve, though single readings scatter.
measured.metric: Potency

Consider the following illustrative entries.
smiles_structure=COc1cccc(N2CCN(S(=O)(=O)c3ccc(-n4cnnn4)cc3)CC2)c1 readout_value=inactive
smiles_structure=C(=N\Nc1nc(-c2ccccn2)nc2ccccc12)/c1ccccc1 readout_value="3.15 µM (active)"
smiles_structure=CN(C)S(=O)(=O)c1cccc(NC(=S)N/N=C/c2ccco2)c1 readout_value=inactive
smiles_structure=Cc1ccc(C(C)C)c(OCc2ccc(C(=O)N/N=C/c3cccc(O)c3O)cc2)c1 readout_value="14.1 µM (active)"
smiles_structure=COCCNC(=S)N/N=C(\C)c1ccccc1O readout_value=inactive

Note: attention shifts to another entry.
Data request, read-out Potency, for CCC(=O)N1CCN(c2ccc(NC(=O)c3ccc([N+](=O)[O-])o3)cc2Cl)CC1 0.705 µM (active)
